Test system: progesterone receptor
Assay: Progesterone receptor assay: inhibition of [3H]R5020 binding, uterine cytosol
Design: species or system rat
Conditions: Table 4′; E^−8
Method: The manner in which the percentage of inhibition is determined is described in “Other Tests; E-Progesterone Receptor Assay”. Lower numbers are desirable. [17α-methyl-^3H]-promegestone (R5020) (84 Ci/mmol) and the corresponding unlabeled compound were purchased from New England Nuclear (Lachine, Québec, Canada). […] Progesterone binding was measured using the dextran-coated charcoal adsorption technique. […] The radioactivity was measured in a Beckman counter at a counting efficiency of 35%.
Hi there, I'd appreciate the recorded % Inhibition Progesterone Receptor E^−8 for every entry that follows.
Give bare numbers, in %.

For each listed entry, give its % Inhibition Progesterone Receptor E^−8.
1. CC1(C)CCC2(CCC3C4CCc5c(cc(Cl)c(O)c5Cl)C4CCC32C)OC1=O (stereo not shown) [EM-1391-CS]
2. CC1CCC2(CCC3C4CCc5ccccc5C4CCC32C)OC1=O (stereo not shown) [EM-1025]
3. CC12CCC3c4ccc(F)cc4CCC3C1CCC21CCCC(=O)O1 (stereo not shown) [EM-1170-CS]
4. CN(C)CCOc1ccc2c(c1)CCC1C2CCC2(C)C1CCC21CCC(C)(C)C(=O)O1 (stereo not shown) [EM-1389-CS]
5. COc1ccc2c(c1)C(=O)CC1C2CC[C@@]2(C)C1CC[C@@]21CCC(C)(C)C(=O)O1 (stereo partly shown) [EM-1394]
6. CC1(C)CCC2(CCC3C4CCc5cc(O)c([N+](=O)[O-])cc5C4CCC32C)OC1=O (stereo not shown) [EM-1125-CS]

Response:
[1, 0, 1, 3, 2, 5]

Look up % Inhibition Progesterone Receptor E^−8 for the entries below, preserving their order.
1. CCS(=O)(=O)Oc1ccc2c(c1)CCC1C2CCC2(C)C1CCC21CCC(C)(C)C(=O)O1 (stereo not shown) [EM-1364-CS]
2. COCCOc1cc2c(cc1C(=O)OC)C1CC[C@@]3(C)C(CC[C@@]34CCC(C)(C)C(=O)O4)C1CC2 (stereo partly shown) [EM-1402-CS]
3. CC1(C)CC[C@@]2(CC[C@H]3[C@@H]4CCc5c(cc(Br)c(O)c5Br)[C@H]4CC[C@@]32C)OC1=O [EM-1382-CS]
4. CC1(C)CC[C@@]2(CCC3C4CCc5cc(F)ccc5C4CC[C@@]32C)OC1=O (stereo partly shown) [EM-1157-CS]
5. COCCOc1ccc2c(c1)CCC1C2CCC2(C)C1CCC21CCC(C)(C)C(=O)O1 (stereo not shown) [EM-1368-CS]
6. COCCOc1cc2c(cc1C#N)C1CC[C@@]3(C)C(CC[C@@]34CCC(C)(C)C(=O)O4)C1CC2 (stereo partly shown) [EM-1396]

Response:
1. 0
2. 2
3. 2
4. 2
5. 0
6. 0

# return % Inhibition Progesterone Receptor E^−8 for each item in the list
1. CSCCOc1ccc2c(c1)CCC1C2CCC2(C)C1CCC21CCCC(=O)O1 (stereo not shown) [CS-242]
2. CCOc1ccc2c(c1)CCC1C2CC[C@@]2(C)C1CC[C@@]21CCC(C)(C)C(=O)O1 (stereo partly shown) [EM-1369]
3. COc1ccc2c(c1)CCC1C2CCC2(C)C1CCC21CCC(C)(C)C(=O)O1 (stereo not shown) [EM-1370]
4. COCCOc1cc2c(cc1Cl)C1CCC3(C)C(CCC34CCC(C)(C)C(=O)O4)C1CC2 (stereo not shown) [EM-1371-CS]
5. COCCOc1cc2c(cc1C(N)=O)C1CC[C@@]3(C)C(CC[C@@]34CCC(C)(C)C(=O)O4)C1CC2 (stereo partly shown) [EM-1424]
6. COCCOc1cc2c(cc1C(F)(F)F)[C@H]1CC[C@@]3(C)[C@@H](CC[C@@]34CCC(C)(C)C(=O)O4)[C@@H]1CC2 [EM-1438]

Response:
1: 0; 2: 1; 3: 0; 4: 0; 5: 1; 6: 0

Prompt: Query % Inhibition Progesterone Receptor E^−8 for CC1(C)CC[C@@]2(CCC3C4CCc5cc6oncc6cc5C4CC[C@@]32C)OC1=O (stereo partly shown) [EM-1407-CS]
Response: 0
